Data provenance is PubChem BioAssay.

For each record, write down the corresponding inhibition.
# protocol-details: human hepatoma cell viability loss – ATP luminescence, cytotoxicity control for P. falciparum antimalarial project, primary screen (AID 2303);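 further: 0% = DMSO wells and 100% = digitonin-killed cells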
# condition-notes: HepG2 viability, 24-48 h, at 10 µM, active compounds read high
One number for each entry, in %.

Go through the items and report each one's inhibition.
1. CC[C@H]1CN(Cc2cccc(O)c2)CC[C@H]1CCCc1ccnc2ccc(O)cc12
2. CC1(CCCCN2CCC(Cc3ccccc3)CC2)C(=O)Nc2ccccc21 (stereo not given)

OUT:
[14, 66]

====

# protocol-details: human hepatoma cell viability loss – ATP luminescence, cytotoxicity control for P. falciparum antimalarial project, primary screen (AID 2303);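 further: 0% = DMSO wells and 100% = digitonin-killed cells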
# condition-notes: HepG2 viability, 24-48 h, at 10 µM, active compounds read high
recorded-metric: inhibition (%)
Answers are plain numbers, in %.

Worked examples, 8 molecules total:
>  <molecule>
Cc1cc(C)c(C)c(S(=O)(=O)N2CCCCC(c3ccc(F)c(F)c3)=N2)c1C

>  <unit-abbrev>
%

>  <inhibition>
5

$$$$
>  <molecule>
O=C(Nc1ccccc1)c1cccc(Nc2nccc(Nc3ccc(Oc4ccccc4)cc3)n2)c1

>  <unit-abbrev>
%

>  <inhibition>
6

$$$$
>  <molecule>
c1ccc(CNCc2cccc(-c3ccc(-c4nc5ccccc5[nH]4)cc3)c2)cc1

>  <unit-abbrev>
%

>  <inhibition>
10

$$$$
>  <molecule>
c1ccc(COc2ccc(Nc3ncnc4ccc(-c5ccc(CN6CCSCC6)o5)cc34)cc2)cc1

>  <unit-abbrev>
%

>  <inhibition>
4

$$$$
>  <molecule>
O=C(N1CCN(c2cccc(C(F)(F)F)c2)CC1)C(Cl)(Cl)Cl

>  <unit-abbrev>
%

>  <inhibition>
-8

$$$$
>  <molecule>
Cc1sc(N2CCCCC2)nc1C(=O)Nc1ccc(F)cc1C(F)(F)F

>  <unit-abbrev>
%

>  <inhibition>
-18

$$$$
>  <molecule>
CN1Cc2ccc(NS(=O)(=O)c3ccc(-c4ccoc4)cc3)cc2C1

>  <unit-abbrev>
%

>  <inhibition>
-3

$$$$
>  <molecule>
Cc1cc(-c2cccc3c(NC(=O)N4CCc5cc6nccc(N7CCN8CCC[C@H]8C7)c6cc54)cccc23)cc(C)n1

>  <unit-abbrev>
%

>  <inhibition>
12

$$$$

Field: inhibition. Fill in for each record below.
1. O=C(N[C@@H](Cc1ccccc1)C(=O)NC1CCCc2ccccc21)c1ccc(O)c(-c2cccc(C(F)(F)F)c2)c1 (some centres undefined)
2. S=C(NCCN1CCOCC1)Nc1ccccc1
3. Cc1cnccc1/C=C/c1cccc(OCCN2CCc3ccc(S(C)(=O)=O)cc3CC2)c1

OUT:
1. -2
2. 3
3. 9
